# assay notes: GFP drop in mixed WT/humanized-ribosome E. coli culture – GFP/RFP fluorescence, OD600, single point, bacterial rRNA inhibitor project, primary screen (AID 720706)
# study conditions: E. coli WT GFP vs humanized-ribosome RFP mutants, 24 h; measured here: RFP humanized mutant strains, DMSO median 0, no signal -100, concentration not given here
The whole screen tested about 350,000 compounds, of which about 5,500 (1.6%) were called active. The full list was thinned out, with actives kept by preference.
Could you please report measured RFP signal change for the items listed next?
Give bare numbers, in %.

INSERT INTO results (compound, numeric_readout) VALUES
  ('COc1ccc(CNC(=O)C2CCN(C(=O)c3ccco3)CC2)cc1', 0.192),
  ('O=C(Nc1ccccc1)N1C[C@H]2[C@@H](c3ccccc31)[C@H](CO)N2Cc1ccc(F)cc1', 0.773),
  ('O=C(Nc1cccc(Cl)c1)N1C[C@@H]2[C@H](c3ccccc31)[C@H](CO)N2Cc1ccncc1', 2.23),
  ('O=C(Nc1cccc(Cl)c1)N1C[C@@H]2[C@H](c3ccccc31)[C@H](CO)N2C(=O)C1CC1', -10.1),
  ('CO[C@@H](CN(C)S(=O)(=O)c1ccc(F)cc1)[C@H](C)CN(C(=O)Nc1ccccc1F)[C@@H](C)CO', -3.65),
  ('CCNC(=O)[C@@H]1[C@@H](CO)[C@@H]2Cn3c(ccc(C4=CCCCC4)c3=O)[C@@H]2N1Cc1ccccc1F', 5.54),
  ('O=C(C1CCCCC1)N1CC(=O)N2[C@H](CO)[C@H](c3ccc(-c4ccccc4F)cc3)[C@H]2C1', 0.225),
  ('CCc1nnc(NC(=O)C2CCN(C(=O)c3ccccc3C)CC2)s1', 0.577);

Give RFP signal change for each of the items listed below.
1. CC[C@H]1OC(=O)[C@H](C)[C@@H](O[C@H]2C[C@@](C)(OC)[C@@H](O)[C@H](C)O2)[C@H](C)[C@@H](O[C@@H]2O[C@H](C)C[C@H](N(C)C)[C@H]2O)[C@](C)(O)C[C@@H](C)[C@@H]2N[C@@H](COCCOC)O[C@H]([C@H]2C)[C@]1(C)O
2. CC1CCN(c2c(NCc3ccc(C(=O)NCc4ccccc4)cc3)c(=O)c2=O)CC1
3. CC1CCCN(c2ccc(C(=O)NCCc3ccccc3)cn2)C1 (configuration not stated)
4. CN(/N=C/c1ccccc1)C(=S)c1ccccc1
5. C[C@@H]1CN([C@@H](C)CO)S(=O)(=O)c2ccc(-c3ccc(F)cc3)cc2O[C@H]1CN(C)C(=O)c1ccccc1F

1: 5.64; 2: 2.65; 3: 0.765; 4: -2.92; 5: -3.3

Give RFP signal change for each of the items listed below.
1. Cc1cc2c(cc1C)[n+](C)cn2CC(O)COCC1CC=CCC1 (configuration not stated)
2. CC(C)NC(=O)Nc1ccc2c(c1)CC(=O)N(C)C[C@@H](C)[C@@H](CN(C)C(=O)OC(C)(C)C)O2
3. C[C@@H](NC(=O)C[C@@H]1CC[C@H](NC(=O)Cc2ccccn2)[C@H](CO)O1)c1ccccc1
4. O=C(c1cnccn1)N1CC(=O)N2[C@H](C1)[C@@H](c1ccc(C3=CCCCC3)cc1)[C@@H]2CO

1: 3.07; 2: 0.746; 3: 0.264; 4: 1.94
